# Measured On: HLA-A*02:06
# Test Summary: IEDB peptide-MHC binding, purified MHC/competitive/radioactivity; filed as Kd, often an IC50 or EC50 that approximates it; bounds were set here for any values at or beyond the usual limits of such assays
# Measurement Context: source organism: Vaccinia virus WR
Measurement Type: Kd

[[record]]
chain_sequence = "HIGHHYIWI"
experimental_value = "≥ 25.3 µM"

[[record]]
chain_sequence = "DTEFINKFL"
experimental_value = "≥ 77.1 µM"

[[record]]
chain_sequence = "EAKTHFSTT"
experimental_value = "≥ 55.3 µM"

[[record]]
chain_sequence = "DLNRMPTDML"
experimental_value = "≥ 47.5 µM"

[[record]]
chain_sequence = "ETFPNVHEHI"
experimental_value = "≥ 69.8 µM"

[[record]]
chain_sequence = "KLTKDRKML"
experimental_value = "≥ 77.1 µM"

[[record]]
chain_sequence = "CVRLNNPVIL"
experimental_value = "≥ 45.1 µM"

[[record]]
chain_sequence = "VMPEKRNVVV"
experimental_value = "≥ 27.7 µM"

[[record]]
chain_sequence = "MTIREFPRK"
experimental_value = "≥ 65.6 µM"

[[record]]
chain_sequence = "LVSKHWELT"
experimental_value = "≥ 77.1 µM"

